Origin of values: the supplement of paper PMC6522484

tested on: DLD1; experiment: TCF/Wnt firefly luciferase reporter signal relative to plate median (fraction of plate median); higher = higher Wnt reporter signal; settings: 5 µM; treatment time 24 h; reporter: 7TFP
result-type: TCF/Wnt firefly luciferase reporter signal
API doc: respond with a numeric literal and nothing else, no unit.

NC(Cn1ccc(=O)c(O)c1)C(=O)O (stereo unspecified) : 0.85
COc1ccc(C(=O)O)c(O)c1OC : 0.803
O=C1c2ccccc2C(=O)C1c1ccccc1 : 1.12
COc1ccc2c(=O)ccoc2c1 : 1.03

### Prompt Please state recorded TCF/Wnt firefly luciferase reporter signal (tested on DLD1) of CCN(CCO)CCCC(C)Nc1ccnc2cc(Cl)ccc12 (stereo unspecified)
### Response 1.02

### Prompt Ok, now Cc1ccc(C)c(OCCCC(C)(C)C(=O)O)c1
### Response 1.01

### Prompt Ok, now C[C@@H]([C@H]1OC(C)(C)[C@@H](O)[C@H]1O)[C@@H]1CC[C@]2(C)C3=CC[C@H]4C(C)(C)C(=O)CC[C@]4(C)[C@H]3CC[C@@]12C
### Response 1.01

====

test system: HCT116; test: cell viability (CellTiter-Glo) relative to plate median (fraction of plate median); higher = more viable cells; details: 5 µM; treatment time 24 h; reporter: TCF4/Wnt
Each entry below lists one item and its recorded cell viability value.
API doc: respond with a numeric literal and nothing else, no unit.

Nc1ccc(S(=O)(=O)Nc2nccs2)cc1 : 0.911
CC[C@@H]1C(=O)N(C)c2cnc(Nc3ccc(C(=O)N[C@H]4CC[C@H](N5CCN(CC6CC6)CC5)CC4)cc3OC)nc2N1C(C)C [Volasertib] : 0.666
O=C(O[C@@H]1Cc2c(O)cc(O)cc2O[C@@H]1c1cc(O)c(=O)c2c(O)c(O)cc([C@H]3Oc4cc(O)cc(O)c4C[C@H]3O)c2c1)c1cc(O)c(O)c(O)c1 : 1.15
C=CC(C1=CC(=O)C(OC)=CC1=O)c1ccccc1 (configuration not stated) : 1.05
O=c1[nH]cnc2c1ncn2[C@@H]1O[C@H](CO)[C@@H](O)[C@H]1O : 1.05
COc1cc(OC)c(-c2c(OC)cc(OC)cc2OC)c(OC)c1 : 0.953
C[C@H]1C[C@@H]2[C@H]([C@@H](O)C[C@@]3(C)[C@H]2CC[C@]3(O)C(=O)COC(=O)CCC(=O)O)[C@@]2(C)C=CC(=O)C=C12 : 1.01
C#C[C@]1(O)CC[C@H]2[C@@H]3CCC4=CCCC[C@@H]4[C@H]3CC[C@@]21C : 1.04

### Prompt State the recorded cell viability for this entry: O=c1c(O)c(-c2ccc(O)cc2)oc2ccccc12
### Response 1.16

### Prompt Ok, now CC(=O)O[C@H](CC(=O)[O-])C[N+](C)(C)C
### Response 0.958

### Prompt Ok, now C=C1C2CC[C@@]3(C)[C@H](c4ccoc4)OC(=O)C[C@]13O[C@H]1CC(=O)C(C)(C)[C@H](C(O)C(=O)OC)[C@@]21C (some centres not stated)
### Response 1.01

### Prompt Ok, now CC(C)(C)CC(C)(C)c1ccc(OCCOCC[N+](C)(C)Cc2ccccc2)cc1
### Response 0.99

====

system: SW480; assay: TCF/Wnt firefly luciferase reporter signal relative to plate median (fraction of plate median); higher = higher Wnt reporter signal; conditions: 5 µM; treatment time 24 h; reporter: 7TFP
Cut-off 1 on TCF/Wnt firefly luciferase reporter signal, inclusive. At or above means condition met; below means condition not met.

CS(=O)(=O)c1ccc(C2=C(c3ccccc3)C(=O)OC2)cc1 : condition met
CC(=O)c1c2c(c(C)n1-c1ccccc1C(=O)O)C(=O)c1c(O)cccc1C2=O : condition met
CCN(CC)CCOC(=O)C1(C2CCCCC2)CCCCC1 : condition met
O=c1cc(-c2ccc(O)cc2)oc2cc(O)ccc12 : condition met

Please turn your attention to the following entry.
### Prompt Please tell me: is the molecule C[C@H]1COC2=C1C(=O)C(=O)c1c2ccc2c1CCCC2(C)C at or over 1 in terms of TCF/Wnt firefly luciferase reporter signal?
### Response condition not met

====

Each entry below lists one item and its recorded cell viability value.
tested on: HCT116; experiment: cell viability (CellTiter-Glo) relative to plate median (fraction of plate median); higher = more viable cells; details: 5 µM; treatment time 24 h; reporter: TCF4/Wnt
API doc: respond with a numeric literal and nothing else, no unit.

COc1c2ccoc2cc2oc(C)cc(=O)c12 : 0.973
CC(=O)c1oc2cc3[nH]c(=O)cc(C)c3cc2c1C [2-Acetyl-3,5-dimethylfuro[3,2-g]quinolin-7-one (VFT-05)] : 0.998
CC(=O)[C@H]1CC[C@H]2[C@@H]3C[C@H](C)C4=CC(=O)CC[C@]4(C)[C@H]3[C@@H](O)C[C@]12C : 0.981
COC(=O)C[C@H]1C(C)(C)C(=O)[C@@H]2CC3=C4CC(=O)O[C@@H](c5ccoc5)[C@]4(C)CC[C@@H]3[C@@]1(C)C2=O : 1.01
O=C1CN(/N=C/c2ccc(-c3ccc([N+](=O)[O-])cc3)o2)C(=O)N1 : 0.99
O=C1O[C@H]([C@@H](O)CO)C(O)=C1O : 1.02

### Prompt State the recorded cell viability for this entry: CN1CCN(CC(=O)N2c3ccccc3C(=O)Nc3cccnc32)CC1
### Response 1

====

Each entry below lists one item and its recorded cell viability value.
tested on: SW480; assay: cell viability (CellTiter-Glo) relative to plate median (fraction of plate median); higher = more viable cells; settings: 5 µM; treatment time 24 h; reporter: 7TFP

These solved cases illustrate the format of a correct answer.
CC(=O)O[C@@](C)(CCC=C(C)C)C1CC=C(C)CC1 (stereo partly drawn) : 0.993
Clc1ccc(C(c2ccccc2Cl)C(Cl)Cl)cc1 (stereo not drawn) : 0.981
C#C[C@]1(O)CC[C@H]2[C@@H]3CCc4cc(OC)ccc4[C@H]3CC[C@@]21C : 0.986
CC1=C(/C=C/C(C)=C/C=C/C(C)=C/C=C/C=C(C)/C=C/C=C(C)/C=C/C(=O)[C@]2(C)C[C@@H](O)CC2(C)C)C(C)(C)C[C@H](O)C1 : 0.997
COc1ccc2c(c1)OC/C(=C/c1ccc(O)c(O)c1)C2=O : 0.986

### Prompt State the recorded cell viability for this entry: COc1cc2c(cc1OC)Cc1cc(OC)c(OC)cc1Cc1cc(OC)c(OC)cc1C2
### Response 1.02

### Prompt Ok, now CCc1nc(N)nc(N)c1-c1ccc(Cl)cc1
### Response 1.02

### Prompt Ok, now O=C1c2ccccc2C(=O)c2c(Cl)cccc21
### Response 0.974

====

tested on: DLD1; assay: cell viability (CellTiter-Glo) relative to plate median (fraction of plate median); higher = more viable cells; conditions: 5 µM; treatment time 24 h; reporter: 7TFP
result-type: cell viability
API doc: respond with a numeric literal and nothing else, no unit.

These solved cases illustrate the format of a correct answer.
CC(=O)c1oc(C)c2c1C(=O)c1cccc(O)c1C2=O [Bhimamycin B] : 0.955
O=C(/C=C/c1ccccc1)c1ccc(O)cc1 : 0.834
CC(=O)OC[C@H]1O[C@@H](Oc2cc(OC(C)=O)c3c(=O)cc(-c4ccc(OC(C)=O)cc4)oc3c2)[C@H](OC(C)=O)[C@@H](OC(C)=O)[C@@H]1OC(C)=O : 1.02

### Prompt State the recorded cell viability for this entry: CC(C)C[C@@H](NC(=O)[C@H](C)NC(=O)CNC(=O)[C@@H](NC=O)C(C)C)C(=O)N[C@@H](C)C(=O)N[C@@H](C(=O)N[C@H](C(=O)N[C@H](C(=O)N[C@@H](Cc1c[nH]c2ccccc12)C(=O)N[C@H](CC(C)C)C(=O)N[C@@H](Cc1c[nH]c2ccccc12)C(=O)N[C@H](CC(C)C)C(=O)N[C@@H](Cc1c[nH]c2ccccc12)C(=O)N[C@H](CC(C)C)C(=O)N[C@@H](Cc1c[nH]c2ccccc12)C(=O)NCCO)C(C)C)C(C)C)C(C)C
### Response 0.939

### Prompt Ok, now CC(=O)/C(=C\c1ccccc1)CC(=O)O
### Response 0.984

### Prompt Ok, now C=CC1=C(C(=O)O)N2C(=O)[C@@H](NC(=O)/C(=N\O)c3csc(N)n3)[C@H]2SC1
### Response 0.911

### Prompt Ok, now C=C1CCC2C(CC2(C)C)C(=O)CCC1O (stereo not given)
### Response 0.969

### Prompt Ok, now C=C1C(=O)O[C@@H]2C[C@@]3(C)CCC[C@H](C)C3=C[C@H]12
### Response 1.01

### Prompt Ok, now C/C=C(\CO)C(=O)O[C@H]1[C@H](O)[C@@H](C(=O)OC)O[C@@H]2C[C@H]3O[C@@H](n4cnc5c(N)ncnc54)[C@H](OC)[C@H]3O[C@]21O [Herbicidin A]
### Response 1.06

### Prompt Ok, now CCN(CC)CCOC(=O)C1(C2CCCCC2)CCCCC1
### Response 0.98

### Prompt Ok, now COc1cc([S+](C)[O-])ccc1-c1nc2cccnc2[nH]1 (stereo not given)
### Response 0.968

### Prompt Ok, now COc1ccc(-c2cc(=O)c3c(O)c(OC)c(OC)c(OC)c3o2)cc1OC
### Response 1.07

### Prompt Ok, now C[C@@H]1CC(=O)c2c(ccc3c2C(=O)c2cccc(O)c2C3=O)C1 [Ochromycinone (Isoform B, compound ID 7489)]
### Response 1.1

### Prompt Ok, now OC[C@H]1O[C@@](CO)(O[C@H]2O[C@H](CO)[C@@H](O)[C@H](O)[C@H]2O)[C@@H](O[C@H]2O[C@H](CO)[C@@H](O)[C@H](O)[C@H]2O)[C@@H]1O
### Response 1.01

### Prompt Ok, now CC[C@H]1OC(=O)[C@H](C)[C@@H](O[C@H]2C[C@@](C)(OC)[C@@H](O)[C@H](C)O2)[C@H](C)[C@@H](O[C@@H]2O[C@H](C)C[C@H](N(C)C)[C@H]2O)[C@](C)(O)C[C@@H](C)C(=O)[C@H](C)[C@@H](O)[C@]1(C)O
### Response 1.01

### Prompt Ok, now OC[C@@H](O)[C@@H](O[C@@H]1O[C@H](CO)[C@@H](O)[C@H](O)[C@H]1O)[C@H](O)[C@@H](O)CO
### Response 0.959
